Listed molecules paired with reported IC50
Molecular target: UniProt:P31650
Sequence (P31650 whole entry): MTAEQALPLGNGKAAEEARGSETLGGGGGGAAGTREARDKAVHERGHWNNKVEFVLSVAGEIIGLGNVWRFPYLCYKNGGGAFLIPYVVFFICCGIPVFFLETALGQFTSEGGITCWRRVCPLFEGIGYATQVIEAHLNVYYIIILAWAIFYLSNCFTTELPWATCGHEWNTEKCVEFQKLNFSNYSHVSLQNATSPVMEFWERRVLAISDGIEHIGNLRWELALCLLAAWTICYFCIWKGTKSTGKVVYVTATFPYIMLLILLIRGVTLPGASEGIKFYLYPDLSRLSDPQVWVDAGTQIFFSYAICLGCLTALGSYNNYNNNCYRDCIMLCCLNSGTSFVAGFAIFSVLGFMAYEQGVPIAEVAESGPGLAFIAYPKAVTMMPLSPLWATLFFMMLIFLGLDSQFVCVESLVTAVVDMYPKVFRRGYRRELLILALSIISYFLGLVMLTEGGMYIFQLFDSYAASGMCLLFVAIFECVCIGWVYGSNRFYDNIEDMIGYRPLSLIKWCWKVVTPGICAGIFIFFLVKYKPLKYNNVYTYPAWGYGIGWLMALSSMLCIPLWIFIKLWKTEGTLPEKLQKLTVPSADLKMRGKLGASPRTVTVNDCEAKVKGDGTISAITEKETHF
Experiment: Inhibition of mouse GAT4 expressed in HEK293 cells assessed as decrease in [3H]GABA uptake
Format: cell-based
Use µM as the unit, but write only the number.

Check out these entries, answers already filled in.
[[record]]
molecule = "CN(CCCC(c1ccccc1)c1ccccc1)C(CCN)C(=O)NCc1ccccc1 (stereo not drawn)"
tgt = "UniProt:P31650"
observed_value = 25.7

[[record]]
molecule = "Cc1ccc(CNC(=O)C(CCN)N(C)CCCC(c2ccccc2)c2ccccc2)cc1 (stereo not drawn)"
tgt = "UniProt:P31650"
observed_value = 8.32


// next entry
Quick check: IC50 of NCCC(C(=O)NCc1ccccc1)N1CCC(=C(c2ccccc2)c2ccccc2)CC1 (stereo not drawn) ?
12

----------
Biological target: GABA transporter 3 (Mus musculus, UniProt P31649)
Sequence (P31649 whole entry): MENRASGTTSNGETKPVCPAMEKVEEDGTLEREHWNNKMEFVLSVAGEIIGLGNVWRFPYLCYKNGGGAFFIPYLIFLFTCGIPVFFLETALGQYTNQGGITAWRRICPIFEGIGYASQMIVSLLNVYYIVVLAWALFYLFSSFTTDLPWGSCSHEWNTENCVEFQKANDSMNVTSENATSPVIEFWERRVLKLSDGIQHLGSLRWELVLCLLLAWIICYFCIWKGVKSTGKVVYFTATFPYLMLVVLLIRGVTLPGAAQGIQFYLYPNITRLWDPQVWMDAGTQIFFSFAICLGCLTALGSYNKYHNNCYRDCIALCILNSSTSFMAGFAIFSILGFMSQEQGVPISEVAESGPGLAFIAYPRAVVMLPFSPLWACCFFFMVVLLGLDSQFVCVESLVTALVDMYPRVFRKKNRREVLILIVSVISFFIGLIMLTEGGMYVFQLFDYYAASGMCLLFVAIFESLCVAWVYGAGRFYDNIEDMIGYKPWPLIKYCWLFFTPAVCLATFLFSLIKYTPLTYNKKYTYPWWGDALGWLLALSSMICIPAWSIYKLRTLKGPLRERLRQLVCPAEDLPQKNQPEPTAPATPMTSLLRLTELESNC
Assay: Inhibition of mouse GAT3 expressed in HEK293 cells assessed as decrease in [3H]GABA uptake
Listed molecules paired with reported IC50
Use µM as the unit, but write only the number.

Check out these entries, answers already filled in.
[[record]]
molecule = "Cc1ccc(CNC(=O)C(CCN)N2CCN(C(c3ccccc3)c3ccccc3)CC2)cc1 (configuration not stated)"
measurement_label = "IC50"
observed_value = 18.2

[[record]]
molecule = "CN(CCCC(c1ccccc1)c1ccccc1)C(CCN)C(=O)NCc1ccccc1Cl (configuration not stated)"
measurement_label = "IC50"
observed_value = 19.1


Quick check: IC50 of NCCC(NCCC=C(c1ccccc1)c1ccccc1)C(=O)NCc1ccccc1Cl (configuration not stated) ?
24

Quick check: IC50 of NCCC(C(=O)NCc1ccccc1Cl)N1CCN(C(c2ccccc2)c2ccccc2)CC1 (configuration not stated) ?
10.5

Quick check: IC50 of NCCC(C(=O)NCc1ccccc1Cl)N1CCC(=C(c2ccccc2)c2ccccc2)CC1 (configuration not stated) ?
15.5

Quick check: IC50 of NCCC(C(=O)NCc1ccccc1)N1CCC(C(c2ccccc2)c2ccccc2)CC1 (configuration not stated) ?
20.4

Quick check: IC50 of CN(CCC=C(c1ccccc1)c1ccccc1)C(CCN)C(=O)NCc1ccccc1 (configuration not stated) ?
24
